Positions of bridges follow the written chain, without caps; N, C: chain ends. Non-standard residues stand in square brackets, D forms with d. Residues, ends and D or L forms follow the SMILES beside them. NMePhe(4-CH2NHiPr) = CN[C@@H](Cc1ccc(CNC(C)C)cc1)C(=O)O
# Somatostatin receptor type 2 (Homo sapiens, UniProt P30874): IC50 values follow
# Sequence (P30874 whole entry): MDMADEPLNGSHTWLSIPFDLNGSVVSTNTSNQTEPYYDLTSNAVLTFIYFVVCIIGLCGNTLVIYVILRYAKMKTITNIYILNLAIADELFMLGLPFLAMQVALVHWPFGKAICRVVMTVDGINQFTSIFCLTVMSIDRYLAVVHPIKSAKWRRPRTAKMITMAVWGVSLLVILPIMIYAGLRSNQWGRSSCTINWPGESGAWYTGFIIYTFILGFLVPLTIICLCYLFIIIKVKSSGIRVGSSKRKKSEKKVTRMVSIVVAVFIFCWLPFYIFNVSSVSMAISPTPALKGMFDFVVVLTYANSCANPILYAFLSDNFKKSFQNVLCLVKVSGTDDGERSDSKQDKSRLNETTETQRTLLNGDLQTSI

compound	IC50
CN[C@H]1CSSC[C@@H](C(=O)O)NC(=O)[C@H](CO)NC(=O)[C@H]([C@@H](C)O)NC(=O)[C@H](Cc2ccccc2)NC(=O)[C@H]([C@@H](C)O)NC(=O)[C@H](Cc2ccc(CNC(C)C)cc2)NC(=O)[C@@H](Cc2c[nH]c3ccccc23)NC(=O)[C@H](Cc2ccccc2)NC(=O)[C@H](Cc2ccccc2)NC(=O)[C@H](CCCCN)NC1=O	> 1000 nM
CC(C)NCc1ccc(C[C@H]2C(=O)N[C@@H]([C@@H](C)O)C(=O)N[C@@H](Cc3ccccc3)C(=O)N[C@@H]([C@@H](C)O)C(=O)N[C@@H](CO)C(=O)N[C@H](C(=O)O)CSSC[C@H](N)C(=O)N[C@@H](CCCCN)C(=O)N[C@@H](Cc3ccccc3)C(=O)N[C@@H](Cc3ccccc3)C(=O)N[C@H](Cc3c[nH]c4ccccc34)C(=O)N2C)cc1 (H-CKFF[dW][NMePhe(4-CH2NHiPr)]TFTSC-OH; disulfide 1-11)	> 1000 nM

Next compound, IC50 to be filled in.
Somatostatin receptor type 2 (Homo sapiens, UniProt P30874) assay, compound C[C@@H](O)[C@@H]1NC(=O)[C@H](Cc2ccc(O)cc2)NC(=O)[C@H]([C@@H](C)O)NC(=O)[C@H](CCCCN)NC(=O)[C@@H](Cc2c[nH]c3ccccc23)NC(=O)[C@H](Cc2ccccc2)NC(=O)[C@H](Cc2ccccc2)NC(=O)[C@H](CCCCN)NC(=O)[C@@H](N)CSSC[C@@H](C(=O)O)NC(=O)[C@H](CO)NC1=O , recorded IC50 = 16 nM
